The values you see were collected from paper PMC12416549.

Please respond with reported apparent Kd (screen) for every item in the list.
- experimental_target: T1, TNFR1 (Homo sapiens, UniProt P19438)
- T1 chain: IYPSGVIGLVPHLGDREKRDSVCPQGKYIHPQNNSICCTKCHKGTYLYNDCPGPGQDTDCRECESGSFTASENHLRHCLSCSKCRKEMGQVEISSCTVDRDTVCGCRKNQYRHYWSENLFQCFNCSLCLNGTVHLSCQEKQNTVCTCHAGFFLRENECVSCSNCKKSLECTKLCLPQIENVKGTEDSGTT
- test_summary: yeast display SC50
Numbers only, in nM.

{"binder": "Q4N (designed binder) MTLNELLREEALRRAEAEAFRYALELLAEKFPEQKEYLLDLAEEIESQIRSLSGVDVEDVRKFLDKEWAWVKELLAEHPAELAEVEAARAARLAELRAEVEAKVAA", "apparent Kd (screen) / nM": 0.405}

Could you report apparent Kd (screen) for every entry in the following list?
1. R8G (designed binder) MTLQELLGEEALRRAEAEAFRYALELLAEKFPEQKEYLLDLAEEIESQIRSLSGVDVEDVRKFLDKEWAWVKELLAEHPAELAEVEAARAARLAELRAEVEAKVAA
2. Q34C (designed binder) MTLQELLREEALRRAEAEAFRYALELLAEKFPECKEYLLDLAEEIESQIRSLSGVDVEDVRKFLDKEWAWVKELLAEHPAELAEVEAARAARLAELRAEVEAKVAA
3. W68M (designed binder) MTLQELLREEALRRAEAEAFRYALELLAEKFPEQKEYLLDLAEEIESQIRSLSGVDVEDVRKFLDKEMAWVKELLAEHPAELAEVEAARAARLAELRAEVEAKVAA

0.593
1.05
0.539
